Tested on: SR leukemia
Assay: NCI-60 one-dose screen, 48 h (100 = growth as untreated, 0 = no growth, -100 = all killed)
Details: 10 µM unless noted
The panel holds about 83,000 compounds, 20% with a hit somewhere; the sample as a whole holds those more often.
Classification by growth follows these ranges: zone 1: < 20%; zone 2: ≥ 20% and < 60%; zone 3: ≥ 60%

Example cases with answers are listed next.
[[record]]
compound = "C1=Cc2ccccc2N(c2nnc(-c3ccccc3)o2)c2ccccc21"
assigned_category = "zone 2"

[[record]]
compound = "O=c1[nH]c(NCc2ccccc2)nc2nc(Nc3ccc(NC(=S)Nc4ccccc4)cc3)nc(-c3ccc(O)cc3O)c12"
assigned_category = "zone 3"

[[record]]
compound = "COc1ccc(/C=C(\\C#N)c2cc(OC)c3c(c2)OCO3)cc1"
assigned_category = "zone 1"


Then there is this compound:
Ask | Sort COc1cc(C2C3=C(COC3=O)Nc3cc4c(cc32)OCO4)cc2c1OCO2 (stereo not drawn) into one of the categories.
Reply | zone 1

----------
Test system: PC-3 prostate
Assay: NCI-60 one-dose screen, 48 h
Settings: 10 µM unless noted
Compounds without any hit were thinned out: in the full panel of roughly 83,000, 20% have a hit. Calls of active or inactive are those of the source. The calls were made as follows: active = growth percent below 10; inactive = the rest.
Valid outcomes are listed here; reply with one: active, inactive

Worked cases, answers included:
[[record]]
molecule = "Cc1ccc(-c2csc(NC(=O)CCCCl)n2)cc1"
assigned_category = "inactive"

[[record]]
molecule = "CCOC(=O)c1ccc2c(c1)nc(-c1ccc(OCc3ccccc3)c(OC)c1)n2-c1cc(C(C)(C)C)[nH]n1"
assigned_category = "inactive"

[[record]]
molecule = "O=C(NCCCNc1nccc(-n2ccc3cccnc32)n1)c1c(F)cccc1F"
assigned_category = "inactive"


Ask | Test call, this compound: COc1ccc2c(c1)[nH]c(=O)c1c3cc(OC)ccc3cn21
Reply | active

Ask | Please share the test call associated with C1=Cc2ccccc2N(c2nnc(-c3ccccc3)o2)c2ccccc21 .
Reply | inactive

----------
For each of the compounds below, state its growth.
Test system: IGROV1 ovarian
Test: NCI-60 one-dose screen, 48 h (100 = growth as untreated, 0 = no growth, -100 = all killed)
Conditions: 10 µM unless noted
Method: Growth inhibition of the IGROV1 human tumor cell line is measured as a screen for anti-cancer activity. Cells are grown in 96 well plates and exposed to the test compound for 48 hours. Compounds are tested at a single concentration, which is 10^-5 M for most compounds. The reported endpoint is percent growth (GI% or GIPRCNT), where numbers from 0 - 100% represent growth inhibition, and numbers from -100% - 0 represent cell death. For example, a value of 40 represents 60% growth inhibition. […]
The panel holds about 83,000 compounds, 20% with a hit somewhere; the sample as a whole holds those more often. Active and inactive are the calls of the source. How the source made its calls: active means growth percent below 10; inactive means the rest.

The following compounds have reported results that may help.
[[record]]
compound = "CN(C)CCOC(=O)Nc1ccccc1Cl"
value = "106% (inactive)"

[[record]]
compound = "COc1cc(Nc2nc(N[C@H]3CCCC[C@@H]3N)nc3cc[nH]c(=O)c23)cc(OC)c1"
value = "8.81% (active)"

[[record]]
compound = "C=C1C(=O)O[C@H]2[C@H]1CC/C(Cn1cc(CNC(=O)c3cc4ccccc4[nH]3)nn1)=C\\CC[C@@]1(C)O[C@@H]21"
value = "71% (inactive)"

[[record]]
compound = "COc1cc(C2C3=C(COC3=O)Nc3cc4c(cc32)CCC4)cc2c1OCO2 (configuration not stated)"
value = "23.2% (inactive)"

[[record]]
compound = "Cc1ccc(S(=O)(=O)/C(=C\\c2ccc(Cl)cc2)C(=O)c2ccccc2)cc1"
value = "109% (inactive)"


Your task in this section: give growth for each listed record.
1. Cn1ccc(=O)c(S(N)(=O)=O)c1
2. S=C(S)NCCc1c[nH]c2ccccc12
3. C=C[C@@H]1C[C@@H]2Cc3cc(F)ccc3N1O2
4. Cc1cc(C2=NNC(=O)Cc3cc4c(cc32)OCCO4)cc(C)c1N

Reply |
1. 124% (inactive)
2. 81.9% (inactive)
3. 122% (inactive)
4. 44.7% (inactive)

Record growth for all entries; do not skip any.
1. CCCCCCCCCCCCNC(=O)[C@H]1CSC(c2cc(Br)cs2)N1 (some centres not stated)
2. COc1cc(-c2nn(-c3cccc(NC(=O)Nc4ccc(Cl)c(Cl)c4)c3)cc2-c2ccncc2)ccc1Cl

Reply |
1. -54.1% (active)
2. 23.9% (inactive)
